Study Target: non-5-HT1A
Measurement Notes: Radioligand binding, non-5-HT1A sites labeled by ^3 H-5-HT + 100 nM 8-OH-DPAT, rat cortex
Condition Context: read-out: Drug Potency (IC50) non-5-HT1A (^3 H-5-HT + 100 nM 8-OH-DPAT); rat cortex; mean ± standard error of 3-4 experiments
Measurement Type: IC50 (nM)

Below: 3 molecules and their reported IC50.
COC(=O)/C=C/C(=O)N[C@]1(C)CC[C@H](C(C)(C)NCC(O)COc2cccc3[nH]ccc23)CC1 (stereo partly shown): 2900
CC(C)(NCC(O)COc1cccc2[nH]ccc12)[C@H]1CC[C@@](C)(NC(=O)CBr)CC1 (stereo partly shown): 430
CC(C)(NC(=O)C1=CC2C=CC1CC2)[C@H]1CC[C@@](C)(NCC(O)COc2cccc3[nH]ccc23)CC1 (stereo partly shown): 46

(I) CC(C)(NCC(O)COc1cccc2[nH]c(C#N)cc12)[C@H]1CC[C@@](C)(NC(=O)CBr)CC1 (stereo partly shown)
(II) CC(C)(NCC(O)COc1cccc2[nH]ccc12)[C@H]1CC[C@@](C)(NC(=O)C2=CC3C=CC2CC3)CC1 (stereo partly shown)
Ask: Pick one: I or II . Which has the bigger IC50 number? Give the label under which the chosen entry appears.
Result: II
(II: 1300 nM, I: 410 nM)

(P) COC(=O)/C=C/C(=O)NC(C)(C)[C@H]1CC[C@@](C)(NCC(O)COc2cccc3[nH]ccc23)CC1 (stereo partly shown)
(Q) CC(C)(NC(=O)CBr)[C@H]1CC[C@@](C)(NCC(O)COc2cccc3[nH]ccc23)CC1 (stereo partly shown)
Ask: Rank P against Q by their IC50 values and give the higher one. Give the chosen item's label as your response.
Result: P
